Target sequence: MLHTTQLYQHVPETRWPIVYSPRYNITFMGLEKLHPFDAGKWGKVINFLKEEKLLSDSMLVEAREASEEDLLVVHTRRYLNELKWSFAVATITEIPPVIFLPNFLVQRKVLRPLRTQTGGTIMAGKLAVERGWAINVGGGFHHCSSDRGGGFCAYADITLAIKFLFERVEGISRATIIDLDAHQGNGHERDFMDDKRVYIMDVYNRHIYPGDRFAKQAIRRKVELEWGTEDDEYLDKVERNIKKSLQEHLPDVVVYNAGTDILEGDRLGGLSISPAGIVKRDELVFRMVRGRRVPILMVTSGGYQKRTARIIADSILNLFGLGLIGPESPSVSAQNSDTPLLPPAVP
reported_endpoint: IC50

*Q* Tell me measured IC50 for Nc1nc2ccc(-c3cn(Cc4ccc(-c5nnc(C(F)F)o5)cc4)nn3)cc2s1 please.
*A* > 30 µM
